Test system: HepG2
Experiment: cytotoxicity call (relative viability < 0.9)
Conditions: 10 µM
Hit rate of the full screen: of about 39,000 compounds, about 3,300 (8.5%) were called active. The full list was thinned out, with actives kept by preference.
Use one of these outcomes when replying: active, inactive

Some solved cases for reference:
> print(dat)
                         structure.notation  assay.target  assigned.label
1                         Nc1ncnc2[nH]cnc12         HepG2        inactive
2  C[C@@H]1CCCCO[C@@H](CN(C)C(=O)Nc2ccc(C(F)(F)F)cc2)[C@@H](C)CN([C@H](C)CO)C(=O)c2cc(NS(=O)(=O)c3cccs3)ccc2O1         HepG2        inactive
3  C[C@H]1CCCCO[C@@H](CN(C)C(=O)Nc2ccc(C(F)(F)F)cc2)[C@@H](C)CN([C@@H](C)CO)C(=O)c2cc(NS(=O)(=O)c3cccs3)ccc2O1         HepG2        inactive
4  C[C@@H]1CCCCO[C@H](CN(C)C(=O)Nc2ccc(C(F)(F)F)cc2)[C@@H](C)CN([C@@H](C)CO)C(=O)c2cc(NS(=O)(=O)c3cccs3)ccc2O1         HepG2          active
5                      Nc1nc(S)c2nc[nH]c2n1         HepG2          active

Which outcome was assigned to Cc1ccc(S(=O)(=O)N(C)C[C@@H]2Oc3ccc(NS(=O)(=O)c4ccc(F)cc4)cc3C(=O)N([C@@H](C)CO)C[C@H]2C)cc1 in this test?
inactive

Which outcome was assigned to COC(=O)c1sccc1NC(=O)Cn1cnc2c1c(=O)n(C)c(=O)n2C in this test?
inactive

Which outcome was assigned to Nc1cc2[nH]cnc2c(O)n1 in this test?
inactive

Reference source for all entries: the antibiotic and cytotoxicity screens of Wong et al. (2023)
